# Test system: LXFL 529
# Test protocol: NCI tumour cell line growth inhibition, 48 h
Active and inactive are the calls of the source. Cut-off read from the data, not from the text of the source: active = GI50 up to about 1.1 µM and inactive = higher.
Labels: Y for active, N for inactive

>>> print(df.to_string())
                                    compound  label_class
 0  CC1OC(n2cc(C(F)(F)F)c(=O)[nH]c2=O)C=CC1=O (stereo not drawn)            N
 1              O=S(=O)(CF)OCCCCOS(=O)(=O)CF            N
 2  CC1=CC(=O)NP(=O)(Oc2ccc(C)cc2)N1 (stereo not drawn)            N
 3  COc1cc(C(=O)C/C(CCC(=O)Nc2ccc(Cl)cc2Cl)=N/NC(=O)C(N)=O)ccc1O            N
 4  O=C(/C=C/c1ccc(OCC(=O)N2CCN(c3ccccc3)CC2)cc1)c1ccc(Cl)cc1            N
 5           COc1ccc(/C=N/N=C(\N)NO)c(Cl)c1O            N
 6  Cc1nc2ccc(NCCN(C)C)c3c(=O)c4cc(O)ccc4n1c23            Y
 7  Cc1cc(NS(=O)(=O)c2ccc(NC(=O)COC(=O)c3cccc4c(=O)c5ccccc5[nH]c34)cc2)no1            N
 8  Cc1ccccc1NC(=O)C(=O)CC(=O)c1ccc([N+](=O)[O-])cc1            N
 9  COC(=O)C1=C(C(=O)OC)C2C(C)=CC(C)=CN2C(C#N)=C(SC)S1 (stereo not drawn)            N
10  C[N+](C)(C)CC(=O)N/N=C(\CCC(=O)NCCc1ccccc1)CC(=O)c1ccccc1            N
11  COC1CCC(OS(C)(=O)=O)C(CO)O1 (stereo not drawn)            N
12                     Cc1ccccc1NC(=O)/C=N/O            N
13  COc1cc(NS(C)(=O)=O)ccc1Nc1c2ccccc2nc2c1[nH]c1ccc(NC3OC(CO)C(O)C(O)C3O)cc12 (stereo not drawn)            Y
14  CN1C/C(=C\c2ccccc2)C2=NN(C(N)=S)[C@H](c3ccccc3)[C@@H]2C1            N
15  CC12CP(=O)(c3ccccc3)CC1C2(Cl)Cl (stereo not drawn)            N
16  CC(C)[C@H](COC(C)(C)C)/N=C/N1CSc2ccccc21            N
17  NCCNc1ccc(NCCN)c2c1C(=O)c1c(O)ccc(O)c1C2=O            Y
18  CC(C)OC(=O)C1Cc2c([nH]c3ccccc23)C(c2ccccc2)N1 (stereo not drawn)            N
19                   CCOC(=O)CC1=CSC2=NCCN12            N
20    Cc1c(C)c2cc3c(=O)c(CCl)coc3c(C)c2oc1=O            N
21  CC[C@H]1[C@@H](C)C=C[C@@H](C)N1S(=O)(=O)c1ccc(C)cc1            N
22                    CCN(CC)CSc1nc2ccccc2s1            N

###

# Test system: SK-MEL-2
# Test protocol: NCI tumour cell line growth inhibition, 48 h
Active and inactive are the calls of the source. Rule as the data show it: active = GI50 up to about 1.1 µM and inactive = higher.
# Lookup of reported GI50 keyed by entry
Quantity name: GI50

In [3]: df
Out[3]:
                                   compound  quantity_name      observed_result
0  COC(=O)C1=C(C(=O)OC)C2C(C)=CC(C)=CN2C(C#N)=C(SC)S1 (stereo not given)           GI50   23.1 µM (inactive)
1               CN(NC(=O)c1ccco1)C1=NCCCCN1           GI50  > 100 µM (inactive)
2      Oc1cccc2ccc(SSc3ccc4cccc(O)c4n3)nc12           GI50   19.1 µM (inactive)
3  CN1CC[C@@]2(c3cccc(O)c3)CC(=O)/C(=C/c3ccccc3)[C@H]1C2.[O-][Cl+3]([O-])([O-])O           GI50   19.8 µM (inactive)
4  COc1nn(Cc2ccccc2F)c2ccc([N+](=O)[O-])cc12           GI50   98.9 µM (inactive)
5  O=C(/C=C/c1ccc(O)c([N+](=O)[O-])c1)CC(=O)/C=C/c1ccc(O)c([N+](=O)[O-])c1           GI50   41.1 µM (inactive)
6  COc1ccc([C@@H]2OC(=O)C3C2C(=O)O[C@H]3c2ccc(OC)cc2)cc1 (stereo not given in full)           GI50  > 100 µM (inactive)
7  C=CC(O)(CBr)CCC(Br)C(=C)C (stereo not given)           GI50   > 10 µM (inactive)
8  O=C(O)CN1C=C(C(=O)c2cc3ccccc3n2S(=O)(=O)c2ccccc2)CCC1           GI50   87.5 µM (inactive)
9  NC(=O)C(=O)N/N=C1\C(=O)N(c2ccc(Cl)cc2Cl)C(=O)C1C(=O)Nc1ccc(Cl)cc1Cl (stereo not given)           GI50  > 100 µM (inactive)
